Target or system: hCRTH2 (Homo sapiens, UniProt Q9Y5Y4)
Construct: expressed in transfected cells; host or cells: HEK (human embryonic kidney) cells expressing hCRTH2; membrane preparation
Sequence (Q9Y5Y4 1-395): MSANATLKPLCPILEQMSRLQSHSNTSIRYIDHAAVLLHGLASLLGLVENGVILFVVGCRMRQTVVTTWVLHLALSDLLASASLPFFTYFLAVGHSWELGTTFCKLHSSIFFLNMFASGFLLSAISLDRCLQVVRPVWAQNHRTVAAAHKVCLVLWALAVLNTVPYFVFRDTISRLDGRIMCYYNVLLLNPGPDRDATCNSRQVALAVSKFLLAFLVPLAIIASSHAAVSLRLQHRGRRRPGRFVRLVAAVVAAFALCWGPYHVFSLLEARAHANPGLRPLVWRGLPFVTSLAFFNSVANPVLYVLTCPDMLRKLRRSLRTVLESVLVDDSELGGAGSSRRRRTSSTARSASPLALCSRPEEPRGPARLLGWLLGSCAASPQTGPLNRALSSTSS
Assay info: Radioligand binding assay ([3H]PGD2 competition, HEK-hCRTH2 membranes)
Experimental conditions: [3H]PGD2 binding, rated A-E (Table A)
pKi: −log10 of the molar value.
Exercise: for every item that follows, state its recorded pKi.

Input: I have this compound here, Cc1ccc([C@H](C)NC(=O)c2ccc3nc(-c4ccccc4)c(CCCCC(=O)O)nc3c2)cc1 [15BC] , and I need its recorded pKi.
Output: 7.70 to 8.68

Input: And for CC(CCCc1nc2cc(C(=O)N[C@@H](CCO)c3ccccc3)ccc2nc1-c1ccc(F)cc1)C(=O)O (stereo partly drawn) ?
Output: 6.70 to 7.70

Input: Subsequent entry: O=C(O)CCCCc1nc2cc(C(=O)NC3CCCc4ccccc43)ccc2nc1-c1ccc(Cl)cc1 (stereo not drawn) [16Ai]
Output: 8.70 to 10.00

Input: Could you do the same for CC(CCCc1nc2cc(C(=O)N3CC[C@H](c4ccccc4)C3)ccc2nc1-c1ccc(C(F)(F)F)cc1)C(=O)O (stereo partly drawn) [18F] , please?
Output: 7.70 to 8.68

Input: // repeat for C[C@H](c1ccc(Cl)cc1)N(C)C(=O)c1ccc2nc(-c3ccc(F)cc3)c(CCCCC(=O)O)nc2c1 and report
Output: 7.70 to 8.68

Input: Cool, now C[C@@H](NC(=O)c1ccc2nc(-c3ccccc3)c(CCCCC(=O)O)nc2c1)c1ccccc1C(F)(F)F [15BL]
Output: 6.70 to 7.70

Input: Would you kindly repeat that for CC(CCc1nc2cc(C(=O)NCc3ccc(Cl)cc3)ccc2nc1-c1ccc(C(F)(F)F)cc1)CC(=O)O (stereo not drawn) [17X] ?
Output: 7.70 to 8.68

Input: Entry O=C(O)CCCCc1nc2cc(C(=O)N3CC[C@H](c4ccccc4)C3)ccc2nc1-c1ccc(Cl)cc1 [16L] please
Output: 7.70 to 8.68

Input: Let us now turn to CC(CCCc1nc2cc(C(=O)N3CC(c4ccccc4)C3)ccc2nc1-c1ccc(Cl)cc1)C(=O)O (stereo not drawn)
Output: 7.70 to 8.68

Input: Then what about the compound O=C(O)CCCCc1nc2cc(C(=O)N3CCC(n4c(=O)[nH]c5ccccc54)CC3)ccc2nc1-c1ccccc1 ?
Output: 7.70 to 8.68

Input: Same again, this time with O=C(O)C1CC1CCc1nc2cc(C(=O)N3CCC(c4ccccc4)CC3)ccc2nc1-c1ccccc1 (single isomer, unassigned) [20F]
Output: 7.70 to 8.68

Input: Same lookup for C[C@@H](NC(=O)c1ccc2nc(-c3ccc(C#N)cc3)c(CCCCC(=O)O)nc2c1)c1ccc(F)cc1 , please.
Output: 7.70 to 8.68

Input: Next compound: O=C(O)CCCCc1nc2cc(C(=O)NCc3cccnc3)ccc2nc1-c1ccccc1 [15AG]
Output: 7.70 to 8.68

Input: Can you handle O=C(O)CCCCc1nc2cc(C(=O)N[C@@H](c3ccccc3)C(F)(F)F)ccc2nc1-c1ccc(C(F)(F)F)cc1 next?
Output: 7.70 to 8.68

Input: And CC(CCCc1nc2cc(C(=O)N[C@H](C)c3ccc(F)cc3)ccc2nc1-c1ccc(F)cc1)C(=O)O (stereo partly drawn) ?
Output: 7.70 to 8.68
